Consider the following compounds; for each one, report its pIC50.
Biological target: human RORγt LBD (Homo sapiens)
Construct: expressed in transfected cells
Test: RORγt reporter assay (GAL4-RORγt LBD luciferase in HEK293T cells)
Format: cell-based
Conditions: HEK293T cells, 24 hours compound treatment
One number for each entry, as −log10 of the molar value.

Prompt line: GET /values?readout=pIC50&item= OC(c1ccc(C(F)(F)F)cc1)(c1cccnc1)c1ccc2nc(Cl)c(-c3ccccc3)c(Cl)c2c1 (stereo not drawn)
Response line: 6.49

Prompt line: Using the record for COCCCn1cncc1C(O)(c1ccc(Cl)cc1)c1ccc2nc(Cl)c(-c3ccccc3)c(Cl)c2c1 (stereo not drawn) , report its pIC50.
Response line: 5.89

Prompt line: Give the measured pIC50 of CCN(CC)c1nc2ccc(C(O)(c3cccnc3)c3cccc(Cl)c3)cc2c(OC)c1-c1ccccc1 (stereo not drawn) .
Response line: 5.64

Prompt line: State the recorded pIC50 for this entry: CC(=O)N1CCC(C(O)(c2ccc3nc(C(F)(F)F)c(-c4ccccc4)c(C(F)(F)F)c3c2)c2cncn2C)CC1 (single isomer, unassigned) [Example 181b]
Response line: 7.21

Prompt line: What measured pIC50 goes with COc1ccc(C(O)(c2cccnc2)c2ccc3nc(N(C)C)c(-c4ccccc4)c(Cl)c3c2)cc1 (stereo not drawn) ?
Response line: 6.60

Prompt line: Param item = COc1nc2c(C)cc(C(O)(c3ccc(C(F)(F)F)nc3)c3cncn3C)cc2c(Cl)c1-c1ccc(OC(F)(F)F)cc1 (single isomer, unassigned) [Example 183c] ; retrieve measured pIC50.
Response line: 6.44

Prompt line: Sample CN(C)c1nc2ccc(C(O)(c3ccncc3)c3ccncc3)cc2c(Cl)c1-c1ccccc1 — what was its pIC50?
Response line: 6.72

Prompt line: Fill blank: measured pIC50 of the compound [O-][n+]1cccc(C(O)(c2cccc(Cl)c2)c2ccc3nc(C(F)(F)F)c(-c4ccccc4)c(C(F)(F)F)c3c2)c1 (stereo not drawn) is ____.
Response line: 6.74

Prompt line: Need pIC50, item CSc1ncc(C(O)(c2ccc(Cl)cc2)c2ccc3nc(Cl)c(-c4ccccc4)c(Cl)c3c2)n1C (stereo not drawn)
Response line: 6.60

Prompt line: Which pIC50 value belongs to OC(c1cccnc1)(c1ccc2nc(Cl)c(-c3ccccc3)c(Cl)c2c1)c1ccccn1 (stereo not drawn) ?
Response line: 6.15

Record pIC50 per entry; entries follow.
1. COc1nc2ccc(C(O)(c3cccnc3)c3cccc(Cl)c3)cc2c(Cl)c1-c1ccccc1 (stereo not drawn)
2. CCOc1nc2ccc(C(O)(c3cccnc3)c3cccc(Cl)c3)cc2c(Cl)c1-c1ccccc1 (stereo not drawn)

Response line:
1. 7.60
2. 6.49

State the recorded pIC50 for every item in the following list.
1. CN(C)c1ccc(C(O)(c2ccc3nc(Cl)c(-c4ccccc4)c(Cl)c3c2)c2cncn2C)cn1 (stereo not drawn)
2. Cc1nc2cc(C(O)(c3ccc4nc(Cl)c(-c5ccccc5)c(Cl)c4c3)c3cncn3C)ccc2o1 (stereo not drawn)

Response line:
1. 5.38
2. 6.89

Prompt line: Tell me the measured pIC50 of CCN(CC)c1nc2ccc(C(O)(c3ccncc3)c3cncn3C)cc2c(C)c1-c1ccccc1 (stereo not drawn) , please.
Response line: 6.85

----------
Target: human RORγt ligand binding domain (RORγt LBD) (Homo sapiens)
Construct: His-tag (N); TurboTEV protease cleavage site (ENLYFQG) (N)
Test: RORγt ThermoFluor assay (thermal shift, ligand binding affinity)
Details: estimated from concentration response of thermal shift
quantity kind: Kd
For clarity, give the value followed by its unit.

Example compounds with recorded Kd:
Prompt line: Can you look up the measured Kd of CCc1nc2ccc(C(O)(c3ccncc3)c3cncn3C)cc2c(CC)c1-c1ccccc1 (stereo not shown) [Example 97] for me?
Response line: 53 nM

Prompt line: Item CC(C)(C)OC(=O)N1CCCC(C(O)(c2cccnc2)c2ccc3nc(Cl)c(-c4ccccc4)c(Cl)c3c2)C1 (stereo not shown) [Example 5] has what recorded Kd?
Response line: 21000 nM

Prompt line: Using the record for Cn1nncc1C(O)(c1ccc2nc(C(F)(F)F)c(-c3ccccc3)c(C(F)(F)F)c2c1)c1cnnn1C [Example 182] , report its Kd.
Response line: 1.5 nM

Further cases:
Prompt line: What value of measured Kd is listed for Cn1cncc1C(O)(c1ccc(Cl)cc1)c1ccc2nc(Cl)c(-c3ccccc3Cl)c(Cl)c2c1 (single isomer, unassigned) [Example 153b] ?
Response line: 270 nM

----------
Target: human RORγt ligand binding domain (RORγt LBD) (Homo sapiens, UniProt P51449)
Construct: His-tag (N); TurboTEV protease cleavage site (ENLYFQG) (N)
Test: RORγt ThermoFluor assay (thermal shift, ligand binding affinity)
Details: estimated from concentration response of thermal shift
Consider the following compounds; for each one, report its pKd.
Numbers only, as −log10 of the molar value.

Prompt line: For CC(C)Oc1nc2ccc(C(O)(c3ccncc3)c3cncn3C)cc2c(N(C)C)c1-c1ccccc1 (centres unmarked) , what is its reported pKd?
Response line: 7.04

Prompt line: I am curious: what pKd value has been reported for CCCCN(C)c1nc2ccc(C(O)(c3ccncc3)c3cncn3C)cc2c(Cl)c1-c1ccccc1 (centres unmarked) ?
Response line: 8.64

Prompt line: // pKd lookup, key: CC(=O)N1CCCC(C(O)(c2cccnc2)c2ccc3nc(Cl)c(-c4ccccc4)c(Cl)c3c2)C1 (centres unmarked)
Response line: 7.54

Prompt line: Which measured pKd value corresponds to OC(c1cccnc1)(c1cccc(Cl)c1)c1ccc2nc(Cl)c(-c3ccccc3)c(Cl)c2c1 (centres unmarked) ?
Response line: 7.19

Prompt line: # lookup: pKd of Cn1cncc1C(N)(c1ccc2nc(Cl)c(-c3ccccc3)c(Cl)c2c1)c1ccccn1 (centres unmarked)
Response line: 5.25

# map each compound to its pKd
1. Cn1cncc1C(O)(c1ccncc1)c1ccc2nc(Cl)c(-c3ccccc3)c(Cl)c2c1F (centres unmarked)
2. COC1CCN(c2nc3ccc(C(O)(c4ccncc4)c4cncn4C)cc3c(Cl)c2-c2ccccc2)CC1 (centres unmarked)
3. CN(C)c1nc2ccc(C(O)(c3ccncc3)c3ccncc3)cc2c(Cl)c1-c1ccccc1

Response line:
[6.70, 6.38, 6.70]

----------
Exercise: state measured pIC50 for each of the compounds provided.
Biological target: human RORγt LBD (Homo sapiens, UniProt P51449)
Sequence (P51449 258-518): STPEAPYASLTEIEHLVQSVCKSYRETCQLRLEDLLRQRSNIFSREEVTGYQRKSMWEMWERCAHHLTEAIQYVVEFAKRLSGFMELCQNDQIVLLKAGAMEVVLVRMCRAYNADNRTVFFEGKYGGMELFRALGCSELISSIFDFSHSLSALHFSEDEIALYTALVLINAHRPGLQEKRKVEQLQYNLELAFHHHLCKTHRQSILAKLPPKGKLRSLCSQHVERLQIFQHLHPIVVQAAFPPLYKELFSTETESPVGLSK
Assay: RORγt reporter assay (GAL4-RORγt LBD luciferase in HEK293T cells)
Details: HEK293T cells, 24 hours compound treatment
Give bare numbers, as −log10 of the molar value.

Fill in pIC50 for each of the 2 compounds listed.
1. CC(=O)N1CCC(C(O)(c2ccccc2)c2ccc3nc(C(F)(F)F)c(-c4ccccc4)c(C(F)(F)F)c3c2)CC1 (single isomer, unassigned) [Example 169b]
2. CN(C)c1c(-c2ccccc2)c(Cl)nc2ccc(C(O)(c3ccc(F)cc3)c3cccnc3)cc12 (stereo not drawn) [Example 39]

Response line:
8.42
5.80

----------
Molecular target: human RORγt LBD (Homo sapiens)
Construct: expressed in transfected cells
Assay: RORγt reporter assay (GAL4-RORγt LBD luciferase in HEK293T cells)
Type: cell-based
Conditions: HEK-293T, read-out: RORγt reporter Assay, % inhibition @ 6 μM, HEK293T cells, 6 μM compound
I'd appreciate it if you could supply inhibition at 6 µM values for the items below.
Give bare numbers, in %.

Prompt line: Item OC(c1ccc(Cl)cc1)(c1cccnc1)c1ccc2nc(-c3cccnc3)c(-c3ccccc3)c(Cl)c2c1 (stereo not shown) has what recorded inhibition at 6 µM?
Response line: 85

State the recorded inhibition at 6 µM for every item in the following list.
1. CC(=O)N1CCC(C(O)(c2ccccc2)c2ccc3nc(C(F)(F)F)c(-c4ccccc4)c(C(F)(F)F)c3c2)CC1 (single isomer, unassigned) [Example 169b]
2. COCCN(C)c1nc2ccc(C(O)(c3ccncc3)c3cncn3C)cc2c(Cl)c1-c1ccccc1 (stereo not shown)
3. CC(=O)N1CCC(C(O)(c2ccccc2)c2ccc3nc(C(F)(F)F)c(-c4ccccc4)c(C(F)(F)F)c3c2)CC1 (racemic) [Example 169a]
4. OC(c1ccccc1)(c1cccnc1)c1ccc2nc(Cl)c(-c3ccccc3Cl)c(Cl)c2c1 (stereo not shown)
5. Cc1cc(C(O)(c2ccc3nc(Cl)c(-c4ccccc4)c(Cl)c3c2)c2nccn2C)cc(Cl)n1 (stereo not shown)
6. CN(C)c1c(-c2ccccc2)c(Cl)nc2ccc(C(O)(c3ccc(Cl)cc3)c3cccnc3)cc12 (stereo not shown)

Response line:
1. 94
2. 106
3. 96
4. 90
5. 94
6. 78
